Give measured pIC50 for each item. Keep answers brief.
target of assay: IL-17RA/IL17RC dimerization induced by IL-17A (Homo sapiens)
Sequence (Q16552 24-155): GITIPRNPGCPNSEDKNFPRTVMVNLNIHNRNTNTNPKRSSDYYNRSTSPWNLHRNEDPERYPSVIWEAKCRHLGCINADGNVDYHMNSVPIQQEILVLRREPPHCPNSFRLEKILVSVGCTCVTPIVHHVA
test method notes: IL-17RA/IL17RC dimerization assay in response to IL-17A (PathHunter Cytokine Receptor Assay)
Format: cell-based
run parameters: IL-17A at EC80; read-out: IC50 in IL-17RA/IL7RC dimerization assay
Protocol: The peptides of Table 7 were tested for their ability to inhibit the binding of IL-17A to its receptor and the subsequent interaction of IL-17RA and IL17RC. […] In the PathHunter® Cytokine Receptor Assay, one cytokine receptor chain is tagged with a small peptide epitope ProLink (PK) and the other chain is tagged with Enzyme Acceptor (EA). […] This interaction generates an active unit of b-galactosidase, which is detected using a chemiluminescent substrate. […]
pIC50: −log10 of the molar value. Residues, ends and D or L forms follow the SMILES beside them.

# example entries with known answers
CC[C@H](C)[C@H](NC(=O)[C@H](Cc1c[nH]c2ccccc12)NC(=O)[C@H](CC(=O)O)NC(=O)[C@H](Cc1c[nH]c2ccccc12)NC(=O)[C@H](CC(C)C)NC(=O)[C@H](CC(=O)O)NC(=O)[C@H](C)NC(=O)[C@@H]1CCCN1C(=O)[C@H](CC(C)C)NC(=O)[C@H](Cc1ccc(O)cc1)NC(=O)[C@@H](NC(=O)[C@H](CCCNC(=N)N)NC(=O)[C@@H](NC(C)=O)C(C)C)[C@@H](C)CC)C(=O)N[C@@H](CC(N)=O)C(=O)N[C@@H](CCCCN)C(N)=O [SEQ ID NO: 245] (Ac-VRIYLPADLWDWINK-NH2)
> 5.00
CC[C@H](C)[C@H](NC(=O)[C@H](CCC(N)=O)NC(=O)[C@H](Cc1ccccc1)NC(=O)[C@H](Cc1c[nH]cn1)NC(=O)[C@@H](NC(C)=O)C(C)C)C(=O)N1CCC[C@H]1C(=O)N[C@@H](CCC(N)=O)C(=O)N[C@@H](CC(=O)O)C(=O)N[C@@H](Cc1c[nH]c2ccccc12)C(=O)N[C@@H](Cc1c[nH]c2ccccc12)C(=O)N[C@@H](CCC(=O)O)C(=O)N[C@@H](Cc1c[nH]c2ccccc12)C(=O)N[C@H](C(=O)N[C@@H](CCCNC(=N)N)C(=O)N[C@@H](CCCNC(=N)N)C(N)=O)C(C)C [SEQ ID NO: 137] (Ac-VHFQIPQDWWEWVRR-NH2)
> 6.30
CC[C@H](C)[C@H](NC(=O)[C@H](Cc1c[nH]c2ccccc12)NC(=O)[C@H](CCC(=O)O)NC(=O)[C@H](Cc1ccc(O)cc1)NC(=O)[C@H](CC(C)C)NC(=O)[C@H](CC(=O)O)NC(=O)[C@H](C)NC(=O)[C@@H]1CCCN1C(=O)[C@@H](NC(=O)[C@@H](NC(=O)[C@@H](NC(=O)[C@H](CCSC)NC(=O)[C@@H](NC(C)=O)C(C)C)C(C)C)[C@@H](C)O)[C@@H](C)CC)C(=O)N[C@@H](CCCNC(=N)N)C(=O)N[C@@H](CCCNC(=N)N)C(N)=O [SEQ ID NO: 17] (Ac-VMVTIPADLYEWIRR-NH2)
> 6.40

// switching to the query molecule
Notebook: CC[C@H](C)[C@H](NC(=O)[C@@H](NC(=O)[C@H](Cc1ccccc1)NC(=O)[C@H](Cc1c[nH]cn1)NC(=O)[C@@H](NC(C)=O)C(C)C)[C@@H](C)O)C(=O)N1CCC[C@H]1C(=O)N[C@@H](C)C(=O)N[C@@H](CC(=O)O)C(=O)N[C@@H](CC(C)C)C(=O)N[C@@H](Cc1c[nH]c2ccccc12)C(=O)N[C@@H](CCC(=O)O)C(=O)N[C@@H](Cc1c[nH]c2ccccc12)C(=O)N[C@H](C(=O)N[C@@H](CCCNC(=N)N)C(=O)N[C@@H](CCCNC(=N)N)C(N)=O)C(C)C [SEQ ID NO: 112] (Ac-VHFTIPADLWEWVRR-NH2) , pIC50 read as > 6.30
